{"columns": ["Molecule", "melting point"],
 "data": [
  ["CC(=O)OC1COC(n2cc(COc3ccc4c(-c5ccccc5)cc(=O)oc4c3)nn2)C(OC(C)=O)C1OC(C)=O (stereo not shown)", "89 to 90 °C"],
  ["O=c1cc(-c2ccccc2)c2ccc(OCc3cn([C@@H]4OC[C@@H](O)[C@H](O)[C@H]4O)nn3)cc2o1", "177 to 178 °C"],
  ["C#CCOc1ccc2c(-c3ccccc3)cc(=O)oc2c1", "116 to 117 °C"],
  ["CC(=O)OC[C@H]1O[C@@H](n2cc(COc3ccc4c(-c5ccccc5)cc(=O)oc4c3)nn2)[C@H](OC(C)=O)[C@@H](OC(C)=O)[C@@H]1OC(C)=O", "131 to 132 °C"],
  ["O=c1cc(-c2ccccc2)c2ccc(OCc3nnn([C@@H]4OC[C@@H](O)[C@H](O)[C@H]4O)n3)cc2o1", "195 to 196 °C"],
  ["N#CCOc1ccc2c(-c3ccccc3)cc(=O)oc2c1", "183 to 184 °C"],
  ["CC(=O)OC[C@H]1O[C@@H](n2cc(COc3ccc4c(-c5ccccc5)cc(=O)oc4c3)nn2)[C@H](OC(C)=O)[C@@H](OC(C)=O)[C@H]1OC(C)=O", "93 to 94 °C"]
]}
